# System: SARS-CoV-2
# assay_notes: microbe, parasite or virus in culture
# Type: functional, organism-based, Chlorocebus sabaeus, Vero C1008
# test_conditions: Severe acute respiratory syndrome coronavirus 2, Vero C1008, 48 h
Form field: IC50 (one value per entry).
measured_quantity: IC50 (nM)

INSERT INTO results (molecule, experimental_target, value_unit, censoring_qualifier, measured) VALUES
  ('C#CCC(Cc1cnc2nc(N)nc(N)c2n1)c1ccc(C(=O)N[C@@H](CCC(=O)O)C(=O)O)cc1 (some centres undefined) [PRALATREXATE]', 'SARS-CoV-2', 'nM', '=', 60),
  ('CC1=C(/C=C/C(C)=C/C=C/C(C)=C/C(=O)Nc2ccc(O)cc2)C(C)(C)CCC1 [FENRETINIDE]', 'SARS-CoV-2', 'nM', '>', 33000),
  ('CC(=O)[C@]1(N)Cc2c(O)c3c(c(O)c2[C@@H](O[C@H]2C[C@H](O)[C@H](O)CO2)C1)C(=O)c1ccccc1C3=O [AMRUBICIN]', 'SARS-CoV-2', 'nM', '=', 330),
  ('COC(=O)C[C@@](O)(CCC(C)(C)O)C(=O)O[C@@H]1C(OC)=C[C@]23CCCN2CCc2cc4c(cc2[C@@H]13)OCO4', 'SARS-CoV-2', 'nM', '=', 790);
